Where do these numbers come from? They come from the Bradley open melting point set (2014).

Hi there, I'd appreciate the recorded melting point for every entry that follows.
Lab note: write values as number then unit, every time.

Request: Recorded melting point for `Oc1ccccc1` , please?
Response: 41 °C

Request: // same read-out, input: `Nc1ccc2ccc3cccc4ccc1c2c34`
Response: 116 °C

Request: // same read-out, input: `O=C1OC2(c3ccccc31)c1ccc(O)c(Br)c1Oc1c2ccc(O)c1Br`
Response: 272 °C

Request: // same read-out, input: `Cc1ccc(Cc2ccccc2)cc1`
Response: 5 °C

Request: // same read-out, input: CC(Oc1ccc(Cl)cc1Cl)C(=O)O (stereo unspecified)
Response: 118 °C

Request: // same read-out, input: Oc1ccccc1C=NCCCN=Cc1ccccc1O [N,N'-bis(salicylidene)-1,3-propanediamine]
Response: 52 °C

Request: // same read-out, input: CC1(C)C2CC[C@]1(C)C(=O)C2 [(1S)-1,7,7-Trimethylbicyclo[2.2.1]heptan-2-one]
Response: 179 °C

Request: // same read-out, input: `OCCC12CC3CC(CC(C3)C1)C2`
Response: 74 °C

Request: // same read-out, input: `O=C(O)Cc1ccc(Cl)cc1`
Response: 105 °C

Request: // same read-out, input: CC(C(=O)O)c1ccc(-c2ccccc2)c(F)c1 (stereo unspecified) [flurbiprofen]
Response: 110 °C

Request: // same read-out, input: `O=C(Nc1ccc([N+](=O)[O-])cc1[N+](=O)[O-])C(C(F)(F)F)C(F)(F)F`
Response: 121 °C

Request: // same read-out, input: `ON=Cc1c(F)cccc1Cl`
Response: 126 °C

Request: // same read-out, input: `Cc1ccc(C=C2N=C(c3ccccc3)OC2=O)o1`
Response: 160 °C

Request: // same read-out, input: `O=C1Nc2c(Br)cccc2C1=O`
Response: 197 °C

Request: // same read-out, input: `CCCOc1ccc2[nH]c(NC(=O)OC)nc2c1`
Response: 230 °C

Request: // same read-out, input: CCCC(O)(CCC)C1(C)CCC(C(=O)O)C(C)(C)O1 (stereo unspecified)
Response: 112 °C

Request: // same read-out, input: COc1cc(Cl)c(Cl)c(Cl)c1Cl [1-Methoxy-2,3,4,5-tetrachlorobenzene]
Response: 88 °C

Request: // same read-out, input: `CCCCCCCCCCCCCCCCCCN`
Response: 56 °C

Request: // same read-out, input: CC(=O)Nc1ccc(Cl)cc1 [4'-chloroacetanilide]
Response: 179 °C

Request: // same read-out, input: CCCCCCC(O)CCCCCCCCCCC(=O)O (stereo unspecified) [12-Hydroxyoctadecanoic acid]
Response: 80.5 °C

Request: // same read-out, input: `O=C(O)Cc1ccccc1Nc1c(Cl)cccc1Cl`
Response: 157 °C

Request: // same read-out, input: OO [Hydrogen peroxide]
Response: -40 °C

Request: // same read-out, input: `NCCCCC(=O)O`
Response: 157 °C

Request: // same read-out, input: O=C(O)/C=C/C(=O)O [fumaric acid]
Response: 300 °C

Request: // same read-out, input: Nc1ccc(O)cc1 [4-Aminophenol]
Response: 189 °C

Request: // same read-out, input: COc1ccc2cc(C(C)COC(C)=O)ccc2c1 (stereo unspecified) [Naproxol acetate]
Response: 61 °C

Request: // same read-out, input: O[C@H](CS)[C@H](O)CS (racemic)
Response: 42 °C

Request: // same read-out, input: O=[N+]([O-])c1cc[n+]([O-])cc1Br [3-bromo-4-nitropyridine n-oxide]
Response: 153 °C

Request: // same read-out, input: `c1ccc2c(c1)cc1ccc3cccc4ccc2c1c34`
Response: 179 °C

Request: // same read-out, input: CCCCCCCCCCO [1-decanol]
Response: 7 °C

Request: // same read-out, input: Nc1ccc(OCCCCCN2C(=O)c3ccccc3C2=O)cc1 [amphotalide]
Response: 113 °C

Request: // same read-out, input: Cc1cc(CC(=O)O)n(C)c1C(=O)c1ccc(Cl)cc1 [Zomepirac]
Response: 178 °C

Request: // same read-out, input: `O=C(O)c1ccc(Br)c(C(=O)O)c1`
Response: 299 °C

Request: // same read-out, input: c1ccc2cc(C3CNCCN3)ccc2c1 (stereo unspecified)
Response: 102 °C

Request: // same read-out, input: COC(=O)c1ccc(OC)cc1O [methyl 2-hydroxy-4-methoxybenzoate]
Response: 48 °C

Request: // same read-out, input: CCCCCCCCCCCCCC(N)=O [N-tetradecanamide]
Response: 106 °C

Request: // same read-out, input: `c1ccc(Nc2ccccc2)cc1`
Response: 53 °C

Request: // same read-out, input: CCCCCCCCCCCC [N-dodecane]
Response: -10 °C

Request: // same read-out, input: CC(C)OC(=O)Nc1ccccc1 [isopropyl n-phenylcarbamate]
Response: 88 °C

Request: // same read-out, input: O=C1CCC(c2ccccc2)(C2CCN(Cc3ccccc3)CC2)C(=O)N1 (stereo unspecified) [benzetimide]
Response: 156 °C

Request: // same read-out, input: COC(=O)c1ccc2nccnc2c1 [methyl quinoxaline-6-carboxylate]
Response: 98 °C
